System: leukemia L-1210
Test: Antitumor activity against leukemia L-1210 implanted in BDF1 mice (ILS, 60 days survivors)
Type: in vivo
Settings: 25.0 mg/kg/day, i.p. D1
MEASURED METRIC: Survivors (60 days)

{"MOLECULE": "CO[C@H]1O[C@H](CNC(=O)N(CCCl)N=O)[C@@H](O)[C@H](O)[C@H]1O [Example 6MCαG]", "Survivors (60 days)": "6/6"}

Quick request: Survivors (60 days) for each listed item, please.
1. O=NN(CCCl)C(=O)N[C@H]1C(O)O[C@H](CO)[C@@H](O)[C@@H]1O (some centres unmarked) [DCNU]
2. CO[C@H]1O[C@H](CO)[C@@H](O)[C@H](O)[C@H]1NC(=O)N(CCCl)N=O [Example 2MCαG]
3. O=NN(CCCl)C(=O)N[C@@H]1O[C@H](CO)[C@@H](O)[C@H](O)[C@H]1O [GANU]
4. O=NN(CCCl)C(=O)NC[C@H]1OC(O)[C@H](O)[C@@H](O)[C@@H]1O (some centres unmarked) [Example 6DCNU]

Out:
["3/6", "4/6", "5/6", "5/6"]
